Biological target: T1, mouse MuSK (mouse, UniProt Q61006 22-494, limits assumed)
T1 construct: Coated on ELISA plates or on the Biacore chip; also called full length mouse MuSK; mouse MuSK (in house produced in HEK293 cells)
T1 sequence (looked up): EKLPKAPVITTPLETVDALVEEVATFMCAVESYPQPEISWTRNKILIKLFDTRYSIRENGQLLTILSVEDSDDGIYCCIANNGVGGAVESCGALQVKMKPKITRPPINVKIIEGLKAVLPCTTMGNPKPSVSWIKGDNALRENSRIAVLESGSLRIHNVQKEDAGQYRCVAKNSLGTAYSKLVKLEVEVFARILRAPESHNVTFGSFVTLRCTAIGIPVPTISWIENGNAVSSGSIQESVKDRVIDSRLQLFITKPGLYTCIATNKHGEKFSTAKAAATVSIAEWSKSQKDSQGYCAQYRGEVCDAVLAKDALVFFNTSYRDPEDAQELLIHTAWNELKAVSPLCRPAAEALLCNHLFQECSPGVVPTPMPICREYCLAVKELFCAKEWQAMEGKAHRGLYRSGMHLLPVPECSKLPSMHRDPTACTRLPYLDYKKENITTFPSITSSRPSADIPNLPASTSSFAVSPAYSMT
Experiment: Biacore, MuSK on chip (200RU), 66.7 nM mAb, dissociation pH 7.4
koff overview
observable: koff (s⁻¹)

>  <binder>
3B2 (antibody, V domains shown, human IgG1 with the LALA mutations (L234A, L235A); produced in HEK293 cells; also called 3B2 mAb; parental 3B2 Ab) VH: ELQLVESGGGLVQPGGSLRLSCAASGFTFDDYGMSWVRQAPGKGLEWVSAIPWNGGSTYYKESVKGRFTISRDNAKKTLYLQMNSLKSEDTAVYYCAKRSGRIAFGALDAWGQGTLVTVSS VL: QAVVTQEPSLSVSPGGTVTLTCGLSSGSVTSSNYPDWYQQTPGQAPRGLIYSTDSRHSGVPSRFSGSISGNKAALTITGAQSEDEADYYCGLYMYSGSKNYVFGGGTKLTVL

>  <value>
0.00061

$$$$
>  <binder>
3B2g2m1 (antibody, human IgG1, V domains shown, human IgG1-LALA backbone; produced in HEK293 cells; also called MuSK agonist antibody 3B2g2m1; MuSK-mAb 3B2g2m1) VH: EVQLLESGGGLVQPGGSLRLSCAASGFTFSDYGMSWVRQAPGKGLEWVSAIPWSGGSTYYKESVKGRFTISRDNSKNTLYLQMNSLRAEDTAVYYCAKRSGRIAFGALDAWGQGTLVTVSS VL: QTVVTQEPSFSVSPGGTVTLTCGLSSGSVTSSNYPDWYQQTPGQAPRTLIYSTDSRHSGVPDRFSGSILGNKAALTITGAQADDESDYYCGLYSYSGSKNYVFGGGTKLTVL

>  <value>
0.00104

$$$$
>  <binder>
3B2g1m1 (antibody, human IgG1, V domains shown, human IgG1-LALA backbone; produced in HEK293 cells) VH: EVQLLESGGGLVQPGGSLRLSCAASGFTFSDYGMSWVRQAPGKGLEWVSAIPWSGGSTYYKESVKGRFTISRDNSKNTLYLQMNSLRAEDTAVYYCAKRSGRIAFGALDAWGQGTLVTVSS VL: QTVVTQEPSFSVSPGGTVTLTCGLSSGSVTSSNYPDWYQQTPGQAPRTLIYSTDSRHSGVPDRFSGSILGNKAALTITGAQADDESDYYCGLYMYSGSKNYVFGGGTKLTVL

>  <value>
0.0011

$$$$
>  <binder>
3B2g1m4 (antibody, human IgG1, V domains shown, human IgG1-LALA backbone; produced in HEK293 cells) VH: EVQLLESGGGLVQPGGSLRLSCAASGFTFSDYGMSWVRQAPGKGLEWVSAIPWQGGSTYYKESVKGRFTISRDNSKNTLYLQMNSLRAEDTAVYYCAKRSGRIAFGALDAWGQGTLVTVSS VL: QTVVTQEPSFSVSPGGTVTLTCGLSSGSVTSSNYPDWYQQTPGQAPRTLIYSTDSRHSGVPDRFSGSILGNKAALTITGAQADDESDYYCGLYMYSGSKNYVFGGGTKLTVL

>  <value>
0.00065

$$$$
>  <binder>
3B2g2m4 (antibody, human IgG1, V domains shown, human IgG1-LALA backbone; produced in HEK293 cells) VH: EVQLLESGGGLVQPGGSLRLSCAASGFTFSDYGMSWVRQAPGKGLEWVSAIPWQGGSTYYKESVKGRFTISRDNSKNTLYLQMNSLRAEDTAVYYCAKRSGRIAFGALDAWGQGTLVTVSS VL: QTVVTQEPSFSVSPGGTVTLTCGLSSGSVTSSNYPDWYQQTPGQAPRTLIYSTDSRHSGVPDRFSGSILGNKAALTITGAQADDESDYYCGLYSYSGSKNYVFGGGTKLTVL

>  <value>
0.00064

$$$$
>  <binder>
3B2g2m2 (antibody, human IgG1, V domains shown, human IgG1-LALA backbone; produced in HEK293 cells) VH: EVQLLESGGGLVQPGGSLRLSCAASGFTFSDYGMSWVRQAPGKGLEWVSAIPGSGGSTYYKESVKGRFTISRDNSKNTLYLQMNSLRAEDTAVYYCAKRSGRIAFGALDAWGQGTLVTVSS VL: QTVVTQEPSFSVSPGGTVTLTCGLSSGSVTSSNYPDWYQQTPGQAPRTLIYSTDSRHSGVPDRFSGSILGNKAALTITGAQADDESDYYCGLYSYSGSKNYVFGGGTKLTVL

>  <value>
0.00231

$$$$
>  <binder>
3B2g1m2 (antibody, human IgG1, V domains shown, human IgG1-LALA backbone; produced in HEK293 cells) VH: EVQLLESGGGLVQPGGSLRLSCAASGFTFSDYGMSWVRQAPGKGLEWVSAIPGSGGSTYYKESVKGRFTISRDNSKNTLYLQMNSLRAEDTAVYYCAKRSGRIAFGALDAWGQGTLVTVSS VL: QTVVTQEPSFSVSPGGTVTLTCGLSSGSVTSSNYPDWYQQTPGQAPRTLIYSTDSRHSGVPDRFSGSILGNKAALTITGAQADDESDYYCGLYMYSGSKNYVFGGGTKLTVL

>  <value>
0.00253

$$$$

Sourced from patent US20230151091A1
